For each of the binders below, state its % Retained 55° C..
Target: T1, TRCW5 antigen (CD3δε-Fc-Avi) (biotinylated (site not stated))
T1 construct: also called recombinant CD3
T1 sequence (chain, as listed by the source mutant limits assumed): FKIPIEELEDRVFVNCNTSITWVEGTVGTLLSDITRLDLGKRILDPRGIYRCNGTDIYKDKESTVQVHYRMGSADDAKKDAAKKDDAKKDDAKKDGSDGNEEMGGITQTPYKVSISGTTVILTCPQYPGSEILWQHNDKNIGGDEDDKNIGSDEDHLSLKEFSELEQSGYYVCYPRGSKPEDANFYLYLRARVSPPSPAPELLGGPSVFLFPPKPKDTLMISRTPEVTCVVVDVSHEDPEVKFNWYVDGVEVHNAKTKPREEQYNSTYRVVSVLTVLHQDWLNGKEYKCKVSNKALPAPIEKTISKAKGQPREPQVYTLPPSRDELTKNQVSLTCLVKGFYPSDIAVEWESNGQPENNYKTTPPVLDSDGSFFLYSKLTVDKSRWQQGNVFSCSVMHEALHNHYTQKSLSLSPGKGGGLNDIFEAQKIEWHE
Assay: binding after heat
Hi, when you answer, please include the unit after the number. Thanks!

Look at this binder and give its reported % Retained 55° C.. CD3B2089 N106S (scFv) scFv: QVQLVQSGAEVKKPGSSVKVSCKASGYTFTRSTMHWVRQAPGQGLEWMGYINPSSAYTNYAQKFQGRVTLTADKSTSTAYMELSSLRSEDTAVYYCASPQVHYDYSGFPYWGQGTLVTVSSGGSEGKSSGSGSESKSTGGSEIVLTQSPATLSASPGERVTLSCSASSSVSYMNWYQQKPGQAPRRWIYDSSKLASGVPARFSGSGSGRDYTLTISSLEPEDFAVYYCQQWSRNPPTFGGGTKVEIK
102%

Fill in the blank: the reported % Retained 55° C. of CD3B2030 N106L (scFv) scFv: QVQLVQSGAEVKKPGSSVKVSCKASGYTFTRSTMHWVKQAPGQGLEWIGYINPSSAYTNYNQKFQGRVTLTADKSTSTAYMELSSLRSEDTAVYYCASPQVHYDYLGFPYWGQGTLVTVSSGGSEGKSSGSGSESKSTGGSEIVLTQSPATLSASPGERVTLSCSASSSVSYMNWYQQKPGQAPRRWIYDSSKLASGVPARFSGSGSGRDYTLTISSLEPEDFAVYYCQQWSRNPPTFGGGTKVEIK is ____.
107%

Return reported % Retained 55° C.; argument: CD3B2089 N106R (scFv) scFv: QVQLVQSGAEVKKPGSSVKVSCKASGYTFTRSTMHWVRQAPGQGLEWMGYINPSSAYTNYAQKFQGRVTLTADKSTSTAYMELSSLRSEDTAVYYCASPQVHYDYRGFPYWGQGTLVTVSSGGSEGKSSGSGSESKSTGGSEIVLTQSPATLSASPGERVTLSCSASSSVSYMNWYQQKPGQAPRRWIYDSSKLASGVPARFSGSGSGRDYTLTISSLEPEDFAVYYCQQWSRNPPTFGGGTKVEIK
102%
